# EC50 listing for each entry below
# MEASUREMENT_TARGET: S. pyogenes SKKanGAS, kanamycin survival, BacTiterGlo, 6 h
# ASSAY_DETAILS: S. pyogenes SKKanGAS kanamycin growth inhibitors – SKKanGAS strain, luminescence, dose confirmation, streptokinase promoter inhibitor project, dose response (AID 1902);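 note: lower survival reflects blocked streptokinase promoter driving kanamycin resistance gene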
ATTRIBUTE_MEASURED: EC50

INSERT INTO assay_data (molecule, assay_result) VALUES
  ('c1ccc(-c2oc3ncnc(NCCCn4ccnc4)c3c2-c2ccccc2)cc1', '8920 nM'),
  ('Nc1c(C(=O)Nc2nc3ccccc3s2)sc2nc(-c3cccs3)ccc12', '6670 nM'),
  ('Cc1onc(-c2c(Cl)cccc2Cl)c1C(=O)NC1C(=O)N2C1SC(C)(C)C2C(=O)O (stereo not given)', '< 60 nM'),
  ('Cc1cc(C(C)(C)C)cc(C)c1COC(=O)c1cccnc1', '3250 nM'),
  ('O=C(NC(=S)N(Cc1ccccc1)Cc1ccccc1)c1ccccc1F', '752 nM'),
  ('O=c1[nH]c(CSc2ncnc3sccc23)nc2ccccc12', '2250 nM'),
  ('O=C(NNC(=S)NC(=O)c1cccc([N+](=O)[O-])c1)c1ccc(Br)cc1', '2070 nM'),
  ('CC(C)=CCC12Oc3cc(O)ccc3C1(O)Oc1cc(O)c([C@H]3C=C(C)CC(c4ccc(O)cc4O)[C@H]3C(=O)c3ccc(O)cc3O)c(O)c1C2=O (stereo not given in full)', '1210 nM'),
  ('O=C(O)c1ccc(N/N=C/c2ccc(-c3cc(Cl)ccc3Cl)o2)cc1', '2480 nM'),
  ('Cc1cccc(OCC(=O)Nc2ccc(C(=O)Nc3ccccc3C(=O)O)cc2)c1C', '2400 nM');
